target: DRB1*0301 (Homo sapiens, UniProt P01903+P01911, A100K/A102G/A103R/A169T/F55Y/I96L/K41T/L162R/M171V/P40S/Q125H/Q178H/Q39Y/R42S/S66N/T106N/T262R/W38E/Y61H); test: biochemical; type: binding
Sequence (P01903 26-254 limits assumed, other chains not shown): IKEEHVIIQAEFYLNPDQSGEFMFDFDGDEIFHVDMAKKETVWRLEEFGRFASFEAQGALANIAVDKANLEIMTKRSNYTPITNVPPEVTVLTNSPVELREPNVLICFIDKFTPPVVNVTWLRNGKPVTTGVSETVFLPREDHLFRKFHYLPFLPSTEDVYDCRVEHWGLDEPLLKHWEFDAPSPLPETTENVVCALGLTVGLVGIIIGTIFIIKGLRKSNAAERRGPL
No end group written: not given here.
property measured: IC50

• PTGCLKKHGYTVEVQ [Peptide 1601.23] = > 20 µM
• DDRWPYLHSRLVVFT [Peptide 89.0058] = > 20 µM

Okay, now this sequence:
Task: Tell me the measured IC50 of QKGRGYRGQHQAHSLERVCH [Peptide F025.05] , please.
Result: > 20 µM
